Measured IC80 (neutralization in TZM.bl cells), listed per entry.
Biological target: HIV-1 pseudovirus AC10.0.29 (HIV-1)
Assay: cell-based or functional assay
property_measured: IC80 (neutralization in TZM.bl cells) (µg/mL)

binder="MS-79 (antibody, V domains shown) VH: QVQLVQSGPEVRKPGTSVKVSCKAPGNTLKTYDLHWVRSVPGQGLQWMGWISHEGDKKVIVERFKAKVTITWDRSTNTAYLQLSGLTSGDTAVYYCAKGSKHRLRDYALYDDDGALNWAVDVDYLSNLEFWGQGTAVTVSS VL: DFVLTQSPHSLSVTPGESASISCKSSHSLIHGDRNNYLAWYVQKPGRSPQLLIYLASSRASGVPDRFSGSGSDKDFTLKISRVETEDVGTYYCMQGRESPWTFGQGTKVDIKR" endpoint_unit=µg/mL measurement=0.404
binder="MS-72 (antibody, V domains shown) VH: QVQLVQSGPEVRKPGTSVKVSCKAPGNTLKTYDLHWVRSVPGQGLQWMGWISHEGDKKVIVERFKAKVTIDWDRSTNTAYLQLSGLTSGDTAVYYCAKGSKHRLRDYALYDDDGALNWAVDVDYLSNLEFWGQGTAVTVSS VL: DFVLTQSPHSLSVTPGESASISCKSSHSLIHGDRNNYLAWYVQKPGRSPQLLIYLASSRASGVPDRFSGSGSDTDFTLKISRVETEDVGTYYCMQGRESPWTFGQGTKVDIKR" endpoint_unit=µg/mL measurement=0.255
binder="MS-75 (antibody, V domains shown) VH: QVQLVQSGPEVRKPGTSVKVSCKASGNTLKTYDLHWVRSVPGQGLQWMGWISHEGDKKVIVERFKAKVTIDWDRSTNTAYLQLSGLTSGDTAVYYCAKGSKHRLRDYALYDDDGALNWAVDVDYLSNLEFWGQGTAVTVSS VL: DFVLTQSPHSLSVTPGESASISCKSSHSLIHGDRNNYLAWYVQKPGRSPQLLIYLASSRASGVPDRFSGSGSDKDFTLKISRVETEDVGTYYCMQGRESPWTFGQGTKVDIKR" endpoint_unit=µg/mL measurement=0.442
